Test system: L1210 leukemia ip in BDF1 mice, survival T/C
procedure-details: NCI In Vivo Anticancer Drug Screen. Data for tumor model L1210 Leukemia (intraperitoneal) in B6D2F1 (BDF1) mice
conditions-used: endpoint: mean survival time; dose: 20.0 mg/kg/injection; schedule: Q01DX001 (ip); vehicle: saline; higher = longer survival
Toxic doses and inconclusive results are not listed.
reported-property: T/C

| query-smiles | T/C |
| --- | --- |
| C1CCC2=NCCCN2CC1 | 103 % of control |
| COc1ccc2nc3cc(Cl)ccc3c(Nc3ccc(O)c(CN(CCCl)CCCl)c3)c2c1 | 104 % of control |

// input: 4 compounds below; output: T/C for each
1. CC(C)=CCNC12CC3CC(CC(C3)C1)C2
2. C=CC[P+](c1ccccc1)(c1ccccc1)c1ccccc1
3. N=C(N)S/C=C/CSC(=N)N
4. O=C(O)/C=C/[P+](c1ccccc1)(c1ccccc1)c1ccccc1

Reply text:
1. 108 % of control
2. 102 % of control
3. 95 % of control
4. 101 % of control

---

Exercise: for every item that follows, state its recorded T/C.
System: L1210 leukemia ip in BDF1 mice, survival T/C
procedure-details: NCI In Vivo Anticancer Drug Screen. Data for tumor model L1210 Leukemia (intraperitoneal) in B6D2F1 (BDF1) mice
conditions-used: endpoint: mean survival time; dose: 400.0 mg/kg/injection; schedule: Q01DX009 (ip); vehicle: Klucel (hydroxypropylcellulose) (HPC); higher = longer survival
Inconclusive results and toxic doses are left out.

Take a look at these entries with their results.
| molecule | test-value |
| --- | --- |
| Cc1cc(OC(=O)Nc2cc(C(F)(F)F)ccc2Cl)ccc1Cl | 95 % of control |
| Cc1[nH]c(N)nc(=S)c1CCC(=O)O | 98 % of control |
| CC(=O)CCN1C(=O)c2ccccc2C1=O | 97 % of control |
| COC(=O)CCC(NC(=O)CCCNC(=O)OCc1ccccc1)C(=O)OC (stereo not drawn) | 100 % of control |
| CSc1ccc(OC(=O)Nc2ccccc2[N+](=O)[O-])cc1C | 92 % of control |
| O=CNC(c1ccccc1)(c1ccccc1)c1ccccc1 | 91 % of control |
| Cc1ccc(NC(=S)N2CCCCC2)cc1C | 101 % of control |
| CCOC(=O)C(/C=N/C(N)=O)=C(\C)O | 106 % of control |

Here are 5 molecules. What values of T/C were reported for them?
1. CCc1c(C=O)[nH]c(=S)n(C)c1=O
2. CCOc1ccc(/C=C/c2ccc(OCC)cc2)cc1
3. ClC(=C(c1ccccc1)c1ccccc1)c1ccccc1
4. CCCCCCCCCCCCCCCC(C)(C)O
5. O=C(Nc1cccc(O)c1)c1ccc([N+](=O)[O-])cc1

Reply text:
1. 98 % of control
2. 93 % of control
3. 95 % of control
4. 102 % of control
5. 90 % of control

---

Exercise: state measured T/C for each of the compounds provided.
Tested on: L1210 leukemia ip in BDF1 mice, survival T/C
procedure-details: NCI In Vivo Anticancer Drug Screen. Data for tumor model L1210 Leukemia (intraperitoneal) in B6D2F1 (BDF1) mice
conditions-used: endpoint: mean survival time; dose: 200.0 mg/kg/injection; schedule: Q01DX001 (ip); vehicle: saline with Tween-80; higher = longer survival
Toxic doses and inconclusive results are not listed.

# map each compound to its T/C
1. Nc1nc2ccc(CNc3ccc(C(=O)NC(CC(=O)O)C(=O)O)cc3)cc2c(=O)[nH]1 (stereo not drawn)
2. O=C(CCCCCCCCC(=O)N/N=C/c1ccccc1)N/N=C/c1ccccc1
3. CSCC1OC(n2cnc3c(N)ncnc32)C(O)C1O (stereo not drawn)

Reply text:
["109 % of control", "88 % of control", "96 % of control"]
